Here the recorded apparent KD of MS2 coat protein is given for each entry.
System: MS2 coat protein
Test: apparent KD of MS2 coat protein; higher = weaker reporter binding
Conditions: Eterna round: R101; input ligand: FMN 200 uM
Give just the number in nM; leave the unit off.

Here are 3 sequences together with their reported answers.
chain	apparent KD of MS2 coat protein / nM
UGGUACAUGGGAGGAUAUGGGUUGAUAACAUGAGGAUCACCCAUGUUAAAUAAGCCGAGAGGCUACUAGAAGGCCCAUGUACCU [#InverseDoubleMagnetSystem - JL SNG1 3.00 18] (puzzle (switch architecture): Same State NG 2)	10.6
AAAUAAACUCAAGGAUAUCAGUGGCAAAGCCACUGAGAAGGUGAGGAUCACCCACCUAAGAUCACAGGUGACGAAAGUCACCUG [#SharedSequence ExNG1 - 37] (puzzle (switch architecture): Exclusion NG 1)	17.6
GGAGAUACAUGAGGAUCACCCAUGUAGGAUAUCGGGCCCAUACCCGGCGAAAGCCGGGUAUGGGCCGAGAAGGGCGUACACACC [#LOL-5] (puzzle (switch architecture): Small Loop Exclusion NG 3)	7.47

## Task Query apparent KD of MS2 coat protein for UUGGUUGUCGUAGGAUAUGUAGGAUAUUCCUACAUGAGGAUCACCCAUGUUCGCAUGGAAGAAGGACAGAAGGACGAUGACCAU [salish99_SSNG2_001 #endbits investigation] (puzzle (switch architecture): Same State NG 2)
## Result 9.52

The origin of these recorded values is the supplement of paper PMC9170038.
